System: giant foxtail (Setaria faberii)
protocol_notes: Test C preemergence
Type: in vivo
experimental_conditions: Rate 125 g/ha; scale 0 to 100, 0 no effect, 100 complete control
measure_name: Plant response rating, Foxtail, Giant
One number for each entry.

Below: 4 molecules and their reported Plant response rating, Foxtail, Giant.
Task: Requested read-out: Plant response rating, Foxtail, Giant. Entry: COc1cc(N2CCC(n3ccc(C(C)(C)C)n3)C2=O)ccc1Cl (centres unmarked) [Compound 117]
Result: 0

Task: Next entry: Cc1ccc(N2CCC(n3ccc(C(C)(C)C)n3)C2=O)cc1I (centres unmarked) [Compound 122]
Result: 0

Task: Can you check CC(C)(C)c1ccn(C2OCN(c3cccc(OC(F)F)c3)C2=O)n1 (centres unmarked) [Compound 133] next?
Result: 100

Task: Okay, and CCC(CC)c1ccn(C2CCN(c3cccc(OC)c3)C2=O)n1 (centres unmarked) [Compound 96] ?
Result: 0

Turning now to a further record.
Task: Tell me the measured Plant response rating, Foxtail, Giant of CCC(C)c1ccn(C2CCN(c3ccc(F)c(C(F)(F)F)c3)C2=O)n1 (centres unmarked) [Compound 145] , please.
Result: 100

###

Test system: corn (Zea mays)
protocol_notes: Test B postemergence
Type: in vivo
experimental_conditions: Rate 500 g/ha, scale 0 to 100, 0 is no effect, 100 is complete control, 13 to 15 days
Consider the following compounds; for each one, report its Plant response rating, Corn.

The cases that follow already have their Plant response rating, Corn on record.
Task: Identify the measured Plant response rating, Corn of CC(C)Oc1ccn(C2CCN(c3cccc(C(F)(F)F)c3)C2=O)n1 (centres unmarked) for corn (Zea mays).
Result: 0

Task: Try this compound too: CC(C)(C)c1ccn(C2CCN(c3cccc(C#N)c3)C2=O)n1 (centres unmarked)
Result: 0

Task: Subsequent entry: Cc1ccc(N2CCC(n3ccc(C(C)(C)C)n3)C2=O)cc1OCCI (centres unmarked)
Result: 0

Task: Try this compound too: O=C1C(n2ccc(C3CCCCC3)n2)SCN1c1cccc(C(F)(F)F)c1 (centres unmarked)
Result: 20

Consider the record given below.
Task: For corn (Zea mays), provide Plant response rating, Corn of CCCCC(CCCC)c1ccn(C2SCN(c3cccc(OC(F)(F)F)c3)C2=O)n1 (centres unmarked) please.
Result: 20

###

Test system: giant foxtail (Setaria faberii)
protocol_notes: Test C postemergence
Assay type: in vivo
experimental_conditions: Rate 250 g/ha, scale 0 to 100 (0 no effect, 100 complete control)
Respond with 1.0 for Plant response rating, Foxtail, Giant values of 50 and above, 0.0 for values below.

Task: Given the entry CC(C)(C)c1ccn(C2SCN(c3cccc(OC(F)F)c3)C2=O)n1 (stereo not drawn) , answer whether its Plant response rating, Foxtail, Giant meets or surpasses 50.
Result: 0.0

More entries:
Task: Identify whether the reported Plant response rating, Foxtail, Giant of the following molecule is 50 or greater: CCC(CC)c1ccn(C2CCN(c3ccc(C)c(OC)c3)C2=O)n1 (stereo not drawn)
Result: 0.0

Task: # repeat for Cc1ccc(N2CCC(n3ccc(C(C)(C)C)n3)C2=O)cc1OCCCl (stereo not drawn)
Result: 0.0

Task: // query: COc1cc(N2CCC(n3ccc(C(C)C)n3)C2=O)ccc1Br (stereo not drawn)
Result: 1.0

Task: CCC(CC)c1ccn(C2CCN(c3ccc(Br)c(OC)c3)C2=O)n1 (stereo not drawn) ?
Result: 1.0

Task: Could you do the same for CCC(C)c1ccn(C2SCN(c3cccc(C(F)(F)F)c3)C2=O)n1 (stereo not drawn) , please?
Result: 1.0

Task: Same question, COc1cc(N2CCC(n3ccc(C(C)(C)C)n3)C2=O)ccc1Br (stereo not drawn) this time
Result: 1.0

Task: Please do the same for CC(C)(C)c1ccn(C2SCN(c3cccc(OC(F)(F)F)c3)C2=O)n1 (stereo not drawn) as well.
Result: 0.0

###

Field: Plant response rating, Morningglory. Provide a value for each of the compounds that follow.
Tested on: morning glory (Ipomoea hederacea)
protocol_notes: Test B preemergence
Format: in vivo
experimental_conditions: Preemergence, Rate 500 g/ha; scale 0 to 100, 0 no effect, 100 complete control
Numbers only.

Example entries begin here.
Task: Returns the measured Plant response rating, Morningglory for the input compound. Input: COc1cc(N2CCC(n3ccc(C(C)(C)C)n3)C2=O)ccc1Br (stereo not drawn)
Result: 100

Task: Now consider CCC(C)c1ccn(C2SCN(c3cccc(C(F)(F)F)c3)C2=O)n1 (stereo not drawn) and answer again.
Result: 0

Task: And CCC(C)c1ccn(C2CCN(c3ccc(Br)c(OC)c3)C2=O)n1 (stereo not drawn) ?
Result: 50

Task: Now this one: CC(C)(C)c1ccn(C2C(=O)N(c3cccc(C(F)(F)F)c3)C[S+]2[O-])n1 (stereo not drawn)
Result: 30

Report Plant response rating, Morningglory for each item below.
1. CCC(C)c1nn(C2CCN(c3cccc(C(F)(F)F)c3)C2=O)cc1Cl (stereo not drawn)
2. CC(C)(C)c1ccn(C2CCN(c3ccc(F)c(Br)c3)C2=O)n1 (stereo not drawn)
3. Cc1ccc(N2CCC(n3ccc(C(C)(C)C)n3)C2=O)cc1OCCCl (stereo not drawn)
4. CCCC(C)c1ccn(C2OCN(c3cccc(OC(F)(F)F)c3)C2=O)n1 (stereo not drawn)
5. CCOc1cccc(N2CCC(n3ccc(C(C)(C)C)n3)C2=O)c1 (stereo not drawn)

Result:
1: 0; 2: 0; 3: 0; 4: 0; 5: 100

###

Tested on: giant foxtail (Setaria faberii)
protocol_notes: Test C preemergence
Assay type: in vivo
experimental_conditions: preemergence, Rate 31 g/ha, scale 0 to 100
Source text: […]
measure_name: Plant response rating, Foxtail, Giant
One number for each entry.

# annotated cases, reported Plant response rating, Foxtail, Giant shown
Task: Given the entry CC(C)(C)c1ccn(C2CCN(c3cccc(Cl)c3)C2=O)n1 (stereo not drawn) [Compound 43] , what Plant response rating, Foxtail, Giant was observed with giant foxtail (Setaria faberii)?
Result: 0

Task: Repeat with COc1cc(N2CCC(n3ccc(C(C)(C)C)n3)C2=O)ccc1C (stereo not drawn) [Compound 42]
Result: 30

Task: What do you have for CCC(CC)c1ccn(C2SCN(c3cccc(C(F)(F)F)c3)C2=O)n1 (stereo not drawn) [Compound 25] ?
Result: 20

Task: // query: O=C1C(n2ccc(C3CC3)n2)OCN1c1cccc(C(F)(F)F)c1 (stereo not drawn) [Compound 28]
Result: 0

Task: Now the same for CC(C)(C)c1ccn(C2CCN(c3cccc([S+]([O-])C(F)(F)F)c3)C2=O)n1 (stereo not drawn) [Compound 101]
Result: 0

New cases:
Task: I'm curious: which Plant response rating, Foxtail, Giant was measured for Cc1cc(C)nc(N2CCC(n3ccc(C(C)(C)C)n3)C2=O)c1 (stereo not drawn) [Compound 138] tested on giant foxtail (Setaria faberii)?
Result: 50

###

Provide the recorded Plant response rating, Foxtail, Giant for the entries that follow.
System: giant foxtail (Setaria faberii)
protocol_notes: Test B postemergence
Assay type: in vivo
experimental_conditions: Rate 125 g/ha, scale 0 to 100, 0 no effect, 100 complete control
Give bare numbers.

Some entries whose results are on file:
Task: What measured Plant response rating, Foxtail, Giant goes with CCCC(C)c1ccn(C2OCN(c3cccc(OC(F)F)c3)C2=O)n1 (stereo not drawn) ?
Result: 0

Task: // repeat for Cc1cccc(N2CCC(n3ccc(C(C)(C)C)n3)C2=O)c1 (stereo not drawn) and report
Result: 0

Record Plant response rating, Foxtail, Giant per entry; entries follow.
1. COc1cc(N2CCC(n3ccc(C(C)C)n3)C2=O)ccc1Cl (stereo not drawn)
2. CCC(CC)c1ccn(C2CCN(c3ccc(Br)c(OC)c3)C2=O)n1 (stereo not drawn)
3. Cc1ccnc(N2CCC(n3ccc(C(C)(C)C)n3)C2=O)c1 (stereo not drawn)
4. CCCOC(=O)c1cccc(N2CCC(n3ccc(C(C)(C)C)n3)C2=O)c1 (stereo not drawn)

Result:
[0, 30, 0, 0]

###

Please go through the items and note down their Plant response rating, Kochia.
Tested on: kochia (Kochia scoparia)
protocol_notes: Test C preemergence
Type: in vivo
experimental_conditions: preemergence, Rate 62 g/ha, scale 0 to 100
Numbers only.

Task: Given the entry CCOc1cc(N2CCC(n3ccc(C(C)(C)C)n3)C2=O)ccc1C (stereo not drawn) , report its measured Plant response rating, Kochia.
Result: 100

Task: Here is the next compound: CCC(C)c1ccn(C2CCN(c3cccc(OC)c3)C2=O)n1 (stereo not drawn)
Result: 100

Task: Next entry: COc1cc(N2CCC(n3ccc(C(C)(C)C)n3)C2=O)ccc1Br (stereo not drawn)
Result: 100

Task: Do the same for CCCOc1cc(N2CCC(n3ccc(C(C)(C)C)n3)C2=O)ccc1C (stereo not drawn) please
Result: 70

Task: Then this compound: CSc1cccc(N2CCC(n3ccc(C(C)(C)C)n3)C2=O)c1 (stereo not drawn)
Result: 70

Kindly consider the entry below.
Task: Which value of Plant response rating, Kochia has been reported for CCCC(C)c1ccn(C2SCN(c3cccc(C(F)(F)F)c3)C2=O)n1 (stereo not drawn) in the records?
Result: 0

These data points were gathered from patent US7138361B2.
